Compiled IC50 measurements on UniProt:P00750 taken from the literature.
Sequence (P00750 whole entry): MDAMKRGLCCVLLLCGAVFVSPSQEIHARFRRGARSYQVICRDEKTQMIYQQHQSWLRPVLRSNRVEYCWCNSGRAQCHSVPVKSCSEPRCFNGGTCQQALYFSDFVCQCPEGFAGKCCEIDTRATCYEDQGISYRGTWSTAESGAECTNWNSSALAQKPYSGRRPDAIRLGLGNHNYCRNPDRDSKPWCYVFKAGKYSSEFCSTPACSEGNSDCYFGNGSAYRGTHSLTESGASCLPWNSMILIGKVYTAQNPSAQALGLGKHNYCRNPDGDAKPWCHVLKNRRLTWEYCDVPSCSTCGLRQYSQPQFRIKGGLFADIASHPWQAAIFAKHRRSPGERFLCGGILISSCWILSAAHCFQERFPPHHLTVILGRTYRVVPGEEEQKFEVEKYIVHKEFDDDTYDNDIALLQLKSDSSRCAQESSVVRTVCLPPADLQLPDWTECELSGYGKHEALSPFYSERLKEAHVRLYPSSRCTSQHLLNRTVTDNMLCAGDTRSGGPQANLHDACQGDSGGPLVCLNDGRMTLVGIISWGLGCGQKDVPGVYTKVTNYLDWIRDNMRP

stdin: What does the data say about its IC50? Entry: "COc1ccc(-c2ccc(C(=O)N[C@H](CO)C(C)(C)C)cc2C(=O)O)c(C(=O)Nc2ccc3c(N)nccc3c2)n1"
stdout: > 33 µM

stdin: What does the data say about its IC50? Entry: "CC(=O)NNCc1ccc(C(=O)Nc2ccc(Cl)cc2C(=O)Nc2ccc(Cl)cn2)cc1"
stdout: > 11 µM

stdin: What does the data say about its IC50? Entry: N=C(N)N1CCCC(NC(=O)[C@H]2CCCN2C(=O)C(CO)NC(=O)OCc2ccccc2)C1O (some centres undefined)
stdout: > 2.5 µM

stdin: What does the data say about its IC50? Entry: CC(C)(C)OC(=O)NC(Cc1ccccc1)C(=O)N1C(C(=O)N[C@H](C=O)CCCN=C(N)N)CCC1(C)C (stereo in doubt)
stdout: > 30000 µM
